# Test system: Bacillus thuringiensis
# ASSAY_COMMENT: Antibacterial activity against Bacillus thuringiensis assessed as inhibition of bacterial growth by agar plate method
# Format: functional, organism-based

- MOLECULAR_STRING: "CC/C=C(\\C)[C@@H](O)[C@@H](O)C1=CC(=O)/C(=C\\C(Cl)Cl)O1"
  Activity: "Moderate_effect"
- MOLECULAR_STRING: "CC/C=C(\\C)[C@@H](O)[C@@H](O)C1=CC(=O)/C(=C/C(Cl)Cl)O1"
  Activity: "Moderate_effect"
